Test system: Male Sprague Dawley rats on high fat diet
assay summary: 11 day rat DIO model (body weight, food intake, hematology, blood chemistries)
Type: in vivo
conditions used: 264 h; DIO rat, 0.3 mpk sc, once a day for 11 days; read-out: DIO Rat 11-day weight loss vs vehicle
Counter-ions that a name gives are not always drawn.
Each entry below lists one item and its recorded inhibition in vivo at 0.3 mg/kg value.
The reply should contain only the number, in %.

The cases that follow already have their inhibition in vivo at 0.3 mg/kg on record.
| compound | test value |
| --- | --- |
| CO[C@@H]1[C@H](OC(=O)N2CC(Cc3ccccn3)C2)CC[C@]2(CO2)[C@H]1[C@@]1(C)O[C@@H]1CC=C(C)C | 5.5 |
| CO[C@@H]1[C@H](OC(=O)N2CC(Cc3ccc(C)nc3)C2)CC[C@]2(CO2)[C@H]1[C@@]1(C)O[C@@H]1CC=C(C)C | 3.9 |
| CO[C@@H]1[C@H](OC(=O)N2CC(CCC3CCN(CC(F)F)CC3)C2)CC[C@]2(CO2)[C@H]1[C@@]1(C)O[C@@H]1CC=C(C)C [Example 91, formate] | 17.2 |

Ask | Entry CCNCCC1CN(C(=O)O[C@@H]2CC[C@]3(CO3)[C@@H]([C@@]3(C)O[C@@H]3CC=C(C)C)[C@@H]2OC)C1 , system Male Sprague Dawley rats on high fat diet: what inhibition in vivo at 0.3 mg/kg was measured?
Reply | 5

Ask | Entry CO[C@@H]1[C@H](OC(=O)N2CC(Nc3ccccn3)C2)CC[C@]2(CO2)[C@H]1[C@@]1(C)O[C@@H]1CC=C(C)C , system Male Sprague Dawley rats on high fat diet: what inhibition in vivo at 0.3 mg/kg was measured?
Reply | 1.2

Ask | Entry CO[C@@H]1[C@H](OC(=O)N2CC(CCN3CCC(F)(F)C3)C2)CC[C@]2(CO2)[C@H]1[C@@]1(C)O[C@@H]1CC=C(C)C , system Male Sprague Dawley rats on high fat diet: what inhibition in vivo at 0.3 mg/kg was measured?
Reply | 5.2

Ask | Entry CO[C@@H]1[C@H](OC(=O)N2CC(OC(=O)N3CCN(CC(F)F)CC3)C2)CC[C@]2(CO2)[C@H]1[C@@]1(C)O[C@@H]1CC=C(C)C , system Male Sprague Dawley rats on high fat diet: what inhibition in vivo at 0.3 mg/kg was measured?
Reply | 7.3

Ask | Entry CCN(CC)C[C@@H]1CCN1C(=O)O[C@@H]1CC[C@]2(CO2)[C@@H]([C@@]2(C)O[C@@H]2CC=C(C)C)[C@@H]1OC [Example 40, formate] , system Male Sprague Dawley rats on high fat diet: what inhibition in vivo at 0.3 mg/kg was measured?
Reply | 0.08

Ask | Entry CO[C@@H]1[C@H](OC(=O)N2CC(CCN3CCN(CC(F)F)CC3)C2)CC[C@]2(CO2)[C@H]1[C@@]1(C)O[C@@H]1CC=C(C)C , system Male Sprague Dawley rats on high fat diet: what inhibition in vivo at 0.3 mg/kg was measured?
Reply | 5.1

Ask | Entry CO[C@@H]1[C@H](OC(=O)N2CC(CCN3CCOCC3)C2)CC[C@]2(CO2)[C@H]1[C@@]1(C)O[C@@H]1CC=C(C)C , system Male Sprague Dawley rats on high fat diet: what inhibition in vivo at 0.3 mg/kg was measured?
Reply | 5.7

Ask | Entry CCN(CC)C[C@@H]1CCCN1C(=O)O[C@@H]1CC[C@]2(CO2)[C@@H]([C@@]2(C)O[C@@H]2CC=C(C)C)[C@@H]1OC [Example 48, formate] , system Male Sprague Dawley rats on high fat diet: what inhibition in vivo at 0.3 mg/kg was measured?
Reply | 0.65

Ask | Entry CO[C@@H]1[C@H](OC(=O)N2CCC(CCN3CC(F)(F)C3)C2)CC[C@]2(CO2)[C@H]1[C@@]1(C)O[C@@H]1CC=C(C)C (stereo in doubt) , system Male Sprague Dawley rats on high fat diet: what inhibition in vivo at 0.3 mg/kg was measured?
Reply | 5.3

Ask | Entry CNC(=O)OC1CN(C(=O)O[C@@H]2CC[C@]3(CO3)[C@@H]([C@@]3(C)O[C@@H]3CC=C(C)C)[C@@H]2OC)C1 , system Male Sprague Dawley rats on high fat diet: what inhibition in vivo at 0.3 mg/kg was measured?
Reply | 7.9

Ask | Entry CCN(CC)CCCC1CN(C(=O)O[C@@H]2CC[C@]3(CO3)[C@@H]([C@@]3(C)O[C@@H]3CC=C(C)C)[C@@H]2OC)C1 , system Male Sprague Dawley rats on high fat diet: what inhibition in vivo at 0.3 mg/kg was measured?
Reply | 1.2

FYI, the data here is from patent US9682965B2.
